# assayComment: Relaxivity in the absence and presence of HSA (Example 3)
# Type: physicochemical
# conditionSet: 20 MHz; absence of HSA (first value of cell)
quantityKind: r1 (20 MHz), absence of HSA

molecule="C[C@@H](NC(=O)C(CN1CCN(CC(=O)O)CCN(CC(=O)O)CCN(CC(=O)O)CC1)NC(=O)C(N)Cc1cc(I)c(O)c(I)c1)c1ccccc1 (stereo partly shown) [Gd (13-R)]" quantitykind="r1 (20 MHz), absence of HSA" reportedmeasurement="6.6 mM⁻¹ s⁻¹"
molecule="COC(=O)CNC(=O)C(CN1CCN(CC(=O)O)CCN(CC(=O)O)CCN(CC(=O)O)CC1)NC(=O)C(N)Cc1cc(I)c(O)c(I)c1 (stereo not shown)" quantitykind="r1 (20 MHz), absence of HSA" reportedmeasurement="4.7 mM⁻¹ s⁻¹"
molecule="C[C@@H](C(=O)NC(CN1CCN(CC(=O)O)CCN(CC(=O)O)CCN(CC(=O)O)CC1)C(=O)N[C@@H](Cc1cc(I)c(O)c(I)c1)C(=O)O)c1ccccc1 (stereo partly shown)" quantitykind="r1 (20 MHz), absence of HSA" reportedmeasurement="6.0 mM⁻¹ s⁻¹"
molecule="C[C@@H](NC(=O)C(CN1CCN(CC(=O)O)CCN(CC(=O)O)CCN(CC(=O)O)CC1)NC(=O)C(N)Cc1cc(I)c(O)c(I)c1)c1ccccc1 (stereo partly shown) [Gd (13-S)]" quantitykind="r1 (20 MHz), absence of HSA" reportedmeasurement="7.1 mM⁻¹ s⁻¹"

Attribution: patent US20150297761A1
